Test system: S. aureus Newman
procedure.summary: Bliss interaction score (quartile over a dose matrix) (fitness difference); higher = more antagonism (negative = synergy);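 note: first quartile when negative (synergy) and third quartile when positive (antagonism)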
readout: Bliss interaction score
No unit in the answer, please; the number alone is enough.

Respond only with Bliss interaction score recorded for CCC[C@@H]1C[C@@H](C(=O)N[C@@H]([C@H]2O[C@H](SC)[C@H](O)[C@@H](O)[C@H]2O)[C@H](C)Cl)N(C)C1 [Clindamycin] + CCC[C@@H]1C[C@@H](C(=O)N[C@@H]([C@H]2O[C@H](SC)[C@H](O)[C@@H](O)[C@H]2O)[C@@H](C)O)N(C)C1 [Lincomycin]
-0.22

Respond only with Bliss interaction score recorded for C[C@@H](O)[C@H]1C(=O)N2C(C(=O)O)=C(SCCNC=N)C[C@H]12 [Imipenem] + CN[C@@H]1[C@H](O)[C@H](NC)[C@H]2O[C@@]3(O)C(=O)C[C@@H](C)O[C@H]3O[C@@H]2[C@H]1O [Spectinomycin]
-0.0557

* * *

Tested on: B. subtilis 168
procedure.summary: Bliss interaction score (quartile over a dose matrix) (fitness difference); higher = more antagonism (negative = synergy)
readout: Bliss interaction score
No unit in the answer, please; the number alone is enough.

- compound: "CC(=O)OC[C@H]1O[C@@H]([S-])[C@H](OC(C)=O)[C@@H](OC(C)=O)[C@@H]1OC(C)=O.CCP(CC)CC.[Au+] [Auranofin] + CN(C)[C@@H]1C(O)=C(C(N)=O)C(=O)[C@@]2(O)C(O)=C3C(=O)c4c(O)ccc(Cl)c4[C@@](C)(O)[C@H]3C[C@@H]12 [Clortetracycline]"
  tested.on: "B. subtilis 168"
  Bliss interaction score: 0.0659

Consider now this further compound.
Respond only with Bliss interaction score recorded for O=C(N[C@H](CO)[C@H](O)c1ccc([N+](=O)[O-])cc1)C(Cl)Cl [Chloramphenicol] + Cc1onc(-c2ccccc2)c1C(=O)N[C@@H]1C(=O)N2[C@@H]1SC(C)(C)[C@@H]2C(=O)O [Oxacillin]
-0.0473

* * *

Tested on: S. pneumoniae D39V
procedure.summary: Bliss interaction score (quartile over a dose matrix) (fitness difference); higher = more antagonism (negative = synergy)
Parameter Bliss interaction score: see the listing below.
No unit in the answer, please; the number alone is enough.

- molecule: "CCC[C@@H]1C[C@@H](C(=O)N[C@@H]([C@H]2O[C@H](SC)[C@H](O)[C@@H](O)[C@H]2O)[C@H](C)Cl)N(C)C1 [Clindamycin] + Cc1cc(NS(=O)(=O)c2ccc(N)cc2)no1 [Sulfamethoxazol]"
  tested.on: "S. pneumoniae D39V"
  reported.measurement: -0.0442

Consider now this further molecule.
Respond only with Bliss interaction score recorded for CC(=O)OC[C@H]1O[C@@H]([S-])[C@H](OC(C)=O)[C@@H](OC(C)=O)[C@@H]1OC(C)=O.CCP(CC)CC.[Au+] [Auranofin] + CN(C)c1cc(NC(=O)CNC(C)(C)C)c(O)c2c1C[C@H]1C[C@H]3[C@H](N(C)C)C(O)=C(C(N)=O)C(=O)[C@@]3(O)C(O)=C1C2=O [Tigecycline]
0.0966

* * *

Test system: S. aureus DSM 20231
procedure.summary: Bliss interaction score (quartile over a dose matrix) (fitness difference); higher = more antagonism (negative = synergy)
Parameter Bliss interaction score: see the listing below.
No unit in the answer, please; the number alone is enough.

Solved entries:
- molecule: "O=C(O[C@@H]1Cc2c(O)cc(O)cc2O[C@@H]1c1cc(O)c(O)c(O)c1)c1cc(O)c(O)c(O)c1 [EGCG] + CO[C@H]1/C=C/O[C@@]2(C)Oc3c(C)c(O)c4c(O)c(c(/C=N/N5CCN(C)CC5)c(O)c4c3C2=O)NC(=O)/C(C)=C\\C=C\\[C@H](C)[C@H](O)[C@@H](C)[C@@H](O)[C@@H](C)[C@H](OC(C)=O)[C@@H]1C [Rifampicin]"
  reported.measurement: -0.0623
- molecule: "O=C(N[C@H](CO)[C@H](O)c1ccc([N+](=O)[O-])cc1)C(Cl)Cl [Chloramphenicol] + Cc1cc(NS(=O)(=O)c2ccc(N)cc2)no1 [Sulfamethoxazol]"
  reported.measurement: -0.0341
- molecule: "O=C1CN(/N=C/c2ccc([N+](=O)[O-])o2)C(=O)N1 [Nitrofurantoin] + CCCc1nc2c(C)cc(-c3nc4ccccc4n3C)cc2n1Cc1ccc(-c2ccccc2C(=O)O)cc1 [Telmisartan]"
  reported.measurement: -0.216

Consider now this further molecule.
Respond only with Bliss interaction score recorded for CC(=O)O[C@H]1C[C@@]2(C)[C@@H](C[C@@H](O)[C@H]3[C@@]4(C)CC[C@@H](O)[C@@H](C)[C@@H]4CC[C@@]32C)/C1=C(\CCC=C(C)C)C(=O)O [Fusidic acid] + C[C@H]1C[C@@H]2[C@H]([C@@H](O)C[C@@]3(C)[C@H]2CC[C@]3(O)C(=O)CO)[C@@]2(C)C=CC(=O)C=C12 [Methylprednisolone]
-0.127

* * *

Test system: S. aureus DSM 20231
procedure.summary: Bliss interaction score (quartile over a dose matrix) (fitness difference); higher = more antagonism (negative = synergy)
Parameter Bliss interaction score: see the listing below.
No unit in the answer, please; the number alone is enough.

- compound: "O=C(N[C@H](CO)[C@H](O)c1ccc([N+](=O)[O-])cc1)C(Cl)Cl [Chloramphenicol] + CN[C@@H]1[C@H](O)[C@H](NC)[C@H]2O[C@@]3(O)C(=O)C[C@@H](C)O[C@H]3O[C@@H]2[C@H]1O [Spectinomycin]"
  reported.measurement: -0.0533
- compound: "N[C@@H]1CONC1=O [CycloserineD] + COc1ccc(C[C@H](N)C(=O)N[C@H]2[C@@H](O)[C@H](n3cnc4c(N(C)C)ncnc43)O[C@@H]2CO)cc1 [Puromycin]"
  reported.measurement: 0.0925
- compound: "O=C(O[C@@H]1Cc2c(O)cc(O)cc2O[C@@H]1c1cc(O)c(O)c(O)c1)c1cc(O)c(O)c(O)c1 [EGCG] + CN(C)c1cc(NC(=O)CNC(C)(C)C)c(O)c2c1C[C@H]1C[C@H]3[C@H](N(C)C)C(O)=C(C(N)=O)C(=O)[C@@]3(O)C(O)=C1C2=O [Tigecycline]"
  reported.measurement: -0.0488

Respond only with Bliss interaction score recorded for CC(=O)OC[C@H]1O[C@@H]([S-])[C@H](OC(C)=O)[C@@H](OC(C)=O)[C@@H]1OC(C)=O.CCP(CC)CC.[Au+] [Auranofin] + O=C(O)[C@H]1/C(=C/CO)O[C@@H]2CC(=O)N21 [Clavulanic]
-0.188

Respond only with Bliss interaction score recorded for CC(=O)O[C@H]1C[C@@]2(C)[C@@H](C[C@@H](O)[C@H]3[C@@]4(C)CC[C@@H](O)[C@@H](C)[C@@H]4CC[C@@]32C)/C1=C(\CCC=C(C)C)C(=O)O [Fusidic acid] + O=C1CN(/N=C/c2ccc([N+](=O)[O-])o2)C(=O)N1 [Nitrofurantoin]
-0.0226

Respond only with Bliss interaction score recorded for CC(=O)OC[C@H]1O[C@@H]([S-])[C@H](OC(C)=O)[C@@H](OC(C)=O)[C@@H]1OC(C)=O.CCP(CC)CC.[Au+] [Auranofin] + Oc1cc(Cl)ccc1Oc1ccc(Cl)cc1Cl [Triclosan]
-0.0223

Respond only with Bliss interaction score recorded for CCC[C@@H]1C[C@@H](C(=O)N[C@@H]([C@H]2O[C@H](SC)[C@H](O)[C@@H](O)[C@H]2O)[C@@H](C)O)N(C)C1 [Lincomycin] + CN[C@H](CC(C)C)C(=O)N[C@H]1C(=O)N[C@@H](CC(N)=O)C(=O)N[C@H]2C(=O)N[C@H]3C(=O)N[C@H](C(=O)N[C@H](C(=O)O)c4cc(O)cc(O)c4-c4cc3ccc4O)[C@H](O)c3ccc(c(Cl)c3)Oc3cc2cc(c3O[C@@H]2O[C@H](CO)[C@@H](O)[C@H](O)[C@H]2O[C@H]2C[C@](C)(N)[C@H](O)[C@H](C)O2)Oc2ccc(cc2Cl)[C@H]1O [Vancomycin]
-0.0567

* * *

Parameter Bliss interaction score: see the listing below.
Test system: S. pneumoniae D39V
procedure.summary: Bliss interaction score (quartile over a dose matrix) (fitness difference); higher = more antagonism (negative = synergy)
No unit in the answer, please; the number alone is enough.

- compound: "N[C@@H]1CONC1=O [CycloserineD] + CC[C@H]1OC(=O)[C@H](C)C(=O)[C@H](C)[C@@H](O[C@@H]2O[C@H](C)C[C@H](N(C)C)[C@H]2O)[C@](C)(OC)C[C@@H](C)C(=O)[C@H](C)[C@H]2N(CCCCn3cnc(-c4cccnc4)c3)C(=O)O[C@]12C [Telithromycin]"
  readout: "Bliss interaction score"
  reported.measurement: 0.0906
- compound: "CC[C@H]1OC(=O)[C@H](C)[C@@H](O[C@H]2C[C@@](C)(OC)[C@@H](O)[C@H](C)O2)[C@H](C)[C@@H](O[C@@H]2O[C@H](C)C[C@H](N(C)C)[C@H]2O)[C@](C)(OC)C[C@@H](C)C(=O)[C@H](C)[C@@H](O)[C@]1(C)O [Clarithromycin] + C[n+]1ccc(-c2cc[n+](C)cc2)cc1 [Paraquat]"
  readout: "Bliss interaction score"
  reported.measurement: 0.0803
- compound: "O=C(N[C@H](CO)[C@H](O)c1ccc([N+](=O)[O-])cc1)C(Cl)Cl [Chloramphenicol] + Cc1ncc([N+](=O)[O-])n1CCO [Metronidazole]"
  readout: "Bliss interaction score"
  reported.measurement: 0.0867

Consider now this further compound.
Respond only with Bliss interaction score recorded for N[C@@H]1CONC1=O [CycloserineD] + Clc1ccc(COC(Cn2ccnc2)c2ccc(Cl)cc2Cl)c(Cl)c1 [Miconazole]
-0.0729
